# Test system: isolated gastric fundic gland
# ASSAY_NOTES: CAP: Acid Secretion Inhibition Test In Vitro ([14C]-aminopyrine uptake)
# Type: cell-based, rabbit (male Japanese White)
# CONDITIONS_USED: Oryctolagus cuniculus; final concentration 10^-5 M; histamine 10^-5 M stimulation; read-out: CAP: acid secretion inhibitory rate
Listing: inhibition at 10 µM of selected compounds
Give the quantity in %, number only.

Recorded results for 4 compounds are shown here.
CCCCCc1ccc(C(=O)NCCN(C(C)C)C(C)C)cc1; 101
CC(C)COc1ccc(C(=O)NCCN(C(C)C)C(C)C)cc1; 97.3
CCN(CC)CCNC(=O)c1ccc(OCC=C(C)C)cc1OCC=C(C)C; 100
CC(C)=CCC/C(C)=C/COc1ccc(C(=O)NCCN(C(C)C)C(C)C)cn1; 94.7

Tell me measured inhibition at 10 µM for CCN(CC)CCNC(=O)c1ccc(OC/C=C(/C)CCC=C(C)C)cc1 please. 109

Tell me measured inhibition at 10 µM for CCN(CC)CCNC(=O)c1cc(OCC=C(C)C)cc(OCC=C(C)C)c1 please. 100

Tell me measured inhibition at 10 µM for CC(C)=CCC/C(C)=C/COc1ccc(C(=O)NCCN(C(C)C)C(C)C)cc1 please. 100

Tell me measured inhibition at 10 µM for CCN(CC)CCNC(=O)c1cccc(OC)c1OC/C=C(\C)CCC=C(C)C please. 100

Tell me measured inhibition at 10 µM for CCN(CC)CCNC(=O)c1cc(OC)c(OC/C=C(\C)CCC=C(C)C)c(OC)c1 please. 99.3

====

# ASSAY_NOTES: MTT: Cell Damaging and Protecting Effect Test
# Format: cell-based, rabbit (male Japanese White)
# CONDITIONS_USED: rabbit, gastric corpus mucosa cells, final concentration 10^-4 M, smaller value is better, read-out: MTT: cell damaging rate
# Source text: MTT: Cell Damaging and Protecting Effect Test It is confirmed that there is no toxicity in cell level. Those having a toxicity in cell level are inappropriate as an anti-ulcer drug. […] The cell damaging or cell protecting effect of the sample compound at the final concentration of 10^-4 M was expressed as cell damaging rate (%) as follows: cell damaging rate (%)=(1-(absorbance in sample group/absorbance in control […]
RECORDED_ENDPOINT: cytotoxicity at 4 h, 100 µM (%)
Give the quantity in %, number only.

Recorded results for 10 molecules are shown here.
CC(C)N(CCNC(=O)c1ccc(NC(C)(C)C)cc1)C(C)C; -58
CCN(CC)CCNC(=O)c1ccccc1OC/C=C(\C)CCC=C(C)C; 28
CC(C)=CCC/C(C)=C/COc1ccc(C(=O)NCCN(C(C)C)C(C)C)cn1; 15
CC(C)N(CCNC(=O)c1ccc2c(c1)OCO2)C(C)C; 29
CCCCCc1ccc(C(=O)NCCN(C(C)C)C(C)C)cc1; 40
CCN(CC)CCNC(=O)c1ccc(CC(C)C)c(O)c1; 11
CC(C)c1ccc(C(=O)NCCN(C(C)C)C(C)C)cc1; 39
CCN(CC)CCNC(=O)c1cc(OC)c(OC/C=C(\C)CCC=C(C)C)c(OC)c1; 39
CCN(CC)CCNC(=O)c1ccc(OCC=C(C)C)c(OCC=C(C)C)c1; 16
CC(C)Cc1cc(C(=O)NCCN(C(C)C)C(C)C)ccc1OCc1ccc(F)cc1; 43

Tell me measured cytotoxicity at 4 h, 100 µM for CC(C)Oc1ccc(C(=O)NCCN(C(C)C)C(C)C)cc1 please. 39

Tell me measured cytotoxicity at 4 h, 100 µM for CCN(CC)CCNC(=O)c1cc(OC)c(OC)c(OCC=C(C)C)c1 please. -2
